# reported pIC50; entries follow
Test system: SW-620
Assay: Antiproliferative activity against human SW620 cells assessed as reduction in cell viability incubated for 72 hrs by MTT assay
Type: functional, cell-based
Settings: SW-620, 72 h
pIC50: −log10 of the molar value.

- RECORD SMILES: "O=C1O/C(=C\\Cn2cc(-c3ccc(Br)cc3)nn2)C(OCc2ccccc2)=C1OCc1ccccc1"
  RELATION: "<"
  pIC50: 4.00
- RECORD SMILES: "O=C1O[C@H]([C@@H](O)Cn2cc(CNS(=O)(=O)c3ccc(Cl)cc3)nn2)C(OCc2ccccc2)=C1OCc1ccccc1"
  RELATION: "="
  pIC50: 4.74
- RECORD SMILES: "O=C1O/C(=C\\Cn2cc(CCCCl)nn2)C(OCc2ccccc2)=C1OCc1ccccc1"
  RELATION: "="
  pIC50: 4.67
- RECORD SMILES: "O=C1O/C(=C\\Cn2cc(C3CC3)nn2)C(OCc2ccccc2)=C1OCc1ccccc1"
  RELATION: "="
  pIC50: 4.53
- RECORD SMILES: "C[Si](C)(C)c1cn(C[C@H](O)[C@H]2OC(=O)C(OCc3ccccc3)=C2OCc2ccccc2)nn1"
  RELATION: "="
  pIC50: 4.25
- RECORD SMILES: "O=C1O[C@H]([C@@H](O)Cn2cc(C3CC3)nn2)C(OCc2ccccc2)=C1OCc1ccccc1"
  RELATION: "="
  pIC50: 4.27
- RECORD SMILES: "CCCCCCCCCCc1cn(C[C@H](O)[C@H]2OC(=O)C(OCc3ccccc3)=C2OCc2ccccc2)nn1"
  RELATION: "="
  pIC50: 4.35
- RECORD SMILES: "CC(C)(C)c1cn(C/C=C2\\OC(=O)C(OCc3ccccc3)=C2OCc2ccccc2)nn1"
  RELATION: "="
  pIC50: 4.68

====

Test system: MCF7
Test: Antiproliferative activity against human MCF7 cells assessed as reduction in cell viability incubated for 72 hrs by MTT assay
Type: functional, cell-based
Conditions: MCF7, 72 h
Okay, here is how we bin by IC50: class 0: < 9 µM; class 1: ≥ 9 µM and < 40 µM; class 2: ≥ 40 µM

- MOLECULE: "O=C1O[C@H]([C@@H](O)Cn2cc(-c3cc(C(F)(F)F)cc(C(F)(F)F)c3)nn2)C(OCc2ccccc2)=C1OCc1ccccc1"
  ASSIGNED CATEGORY: "class 2"
- MOLECULE: "CC(C)(C)c1cn(C[C@H](O)[C@H]2OC(=O)C(OCc3ccccc3)=C2OCc2ccccc2)nn1"
  ASSIGNED CATEGORY: "class 0"
- MOLECULE: "O=C1O/C(=C\\Cn2cc(CCCCl)nn2)C(OCc2ccccc2)=C1OCc1ccccc1"
  ASSIGNED CATEGORY: "class 1"
- MOLECULE: "Cc1ccc(-c2cn(C/C=C3\\OC(=O)C(OCc4ccccc4)=C3OCc3ccccc3)nn2)cc1"
  ASSIGNED CATEGORY: "class 2"
- MOLECULE: "O=C1O[C@H]([C@@H](O)CO)C(O)=C1O [ASCORBIC ACID]"
  ASSIGNED CATEGORY: "class 2"
- MOLECULE: "O=C1O[C@H]([C@@H](O)Cn2cc(CNS(=O)(=O)c3ccc(F)cc3)nn2)C(OCc2ccccc2)=C1OCc1ccccc1"
  ASSIGNED CATEGORY: "class 1"
- MOLECULE: "Cc1ccc(-c2cn(C[C@H](O)[C@H]3OC(=O)C(OCc4ccccc4)=C3OCc3ccccc3)nn2)cc1"
  ASSIGNED CATEGORY: "class 2"
- MOLECULE: "O=C1O/C(=C\\Cn2cc(-c3cccc(O)c3)nn2)C(OCc2ccccc2)=C1OCc1ccccc1"
  ASSIGNED CATEGORY: "class 1"
- MOLECULE: "O=C1O[C@H]([C@@H](O)Cn2cc(-c3ccc(Br)cc3)nn2)C(OCc2ccccc2)=C1OCc1ccccc1"
  ASSIGNED CATEGORY: "class 0"
- MOLECULE: "CCCCCCCCCCc1cn(C/C=C2\\OC(=O)C(OCc3ccccc3)=C2OCc2ccccc2)nn1"
  ASSIGNED CATEGORY: "class 2"
- MOLECULE: "O=C1O[C@H]([C@@H](O)Cn2cc(CNS(=O)(=O)c3ccc(Cl)cc3)nn2)C(OCc2ccccc2)=C1OCc1ccccc1"
  ASSIGNED CATEGORY: "class 0"
- MOLECULE: "O=C1O/C(=C\\Cn2cc(-c3cc(C(F)(F)F)cc(C(F)(F)F)c3)nn2)C(OCc2ccccc2)=C1OCc1ccccc1"
  ASSIGNED CATEGORY: "class 2"
- MOLECULE: "O=C1O/C(=C\\Cn2cc(-c3cc(F)cc(F)c3)nn2)C(OCc2ccccc2)=C1OCc1ccccc1"
  ASSIGNED CATEGORY: "class 2"
- MOLECULE: "COc1ccccc1-c1cn(C/C=C2\\OC(=O)C(OCc3ccccc3)=C2OCc2ccccc2)nn1"
  ASSIGNED CATEGORY: "class 2"
- MOLECULE: "O=C1O[C@H]([C@@H](O)Cn2cc(-c3cc(F)cc(F)c3)nn2)C(OCc2ccccc2)=C1OCc1ccccc1"
  ASSIGNED CATEGORY: "class 1"
- MOLECULE: "CC(C)(C)OC(=O)N1CCN(C(=S)SCc2cn(C[C@H](O)[C@H]3OC(=O)C(OCc4ccccc4)=C3OCc3ccccc3)nn2)CC1"
  ASSIGNED CATEGORY: "class 2"
- MOLECULE: "CCCCCc1ccc(-c2cn(C/C=C3\\OC(=O)C(OCc4ccccc4)=C3OCc3ccccc3)nn2)cc1"
  ASSIGNED CATEGORY: "class 2"
- MOLECULE: "COc1ccc(-c2cn(C[C@H](O)[C@H]3OC(=O)C(OCc4ccccc4)=C3OCc3ccccc3)nn2)cc1"
  ASSIGNED CATEGORY: "class 2"
- MOLECULE: "CCCCc1cn(C/C=C2\\OC(=O)C(OCc3ccccc3)=C2OCc2ccccc2)nn1"
  ASSIGNED CATEGORY: "class 2"
- MOLECULE: "Cc1ccc(S(=O)(=O)NCc2cn(C[C@H](O)[C@H]3OC(=O)C(OCc4ccccc4)=C3OCc3ccccc3)nn2)cc1"
  ASSIGNED CATEGORY: "class 0"
- MOLECULE: "O=C1O[C@H]([C@@H](O)Cn2cc(CCCCl)nn2)C(OCc2ccccc2)=C1OCc1ccccc1"
  ASSIGNED CATEGORY: "class 1"
- MOLECULE: "O=C1O/C(=C\\Cn2cc(-c3ccc(Br)cc3)nn2)C(OCc2ccccc2)=C1OCc1ccccc1"
  ASSIGNED CATEGORY: "class 2"
- MOLECULE: "CC(C)(C)c1cn(C/C=C2\\OC(=O)C(OCc3ccccc3)=C2OCc2ccccc2)nn1"
  ASSIGNED CATEGORY: "class 0"
- MOLECULE: "COc1ccccc1-c1cn(C[C@H](O)[C@H]2OC(=O)C(OCc3ccccc3)=C2OCc2ccccc2)nn1"
  ASSIGNED CATEGORY: "class 2"
- MOLECULE: "O=C1O[C@H]([C@@H](O)Cn2cc(CCO)nn2)C(OCc2ccccc2)=C1OCc1ccccc1"
  ASSIGNED CATEGORY: "class 2"
- MOLECULE: "C[Si](C)(C)c1cn(C[C@H](O)[C@H]2OC(=O)C(OCc3ccccc3)=C2OCc2ccccc2)nn1"
  ASSIGNED CATEGORY: "class 1"
- MOLECULE: "O=C1O[C@H]([C@@H](O)Cn2cc(C3CC3)nn2)C(OCc2ccccc2)=C1OCc1ccccc1"
  ASSIGNED CATEGORY: "class 1"
- MOLECULE: "O=C1O/C(=C\\Cn2cc(CCO)nn2)C(OCc2ccccc2)=C1OCc1ccccc1"
  ASSIGNED CATEGORY: "class 1"
- MOLECULE: "CCCCc1cn(C[C@H](O)[C@H]2OC(=O)C(OCc3ccccc3)=C2OCc2ccccc2)nn1"
  ASSIGNED CATEGORY: "class 0"
- MOLECULE: "CCCCCCCCCCc1cn(C[C@H](O)[C@H]2OC(=O)C(OCc3ccccc3)=C2OCc2ccccc2)nn1"
  ASSIGNED CATEGORY: "class 0"
- MOLECULE: "O=C1O[C@H]([C@@H](O)Cn2ccnn2)C(OCc2ccccc2)=C1OCc1ccccc1"
  ASSIGNED CATEGORY: "class 2"
- MOLECULE: "O=C1O[C@H]([C@@H](O)Cn2cc(-c3cccc(O)c3)nn2)C(OCc2ccccc2)=C1OCc1ccccc1"
  ASSIGNED CATEGORY: "class 2"
